TARGET DESC: human leukocyte elastase (HLE) (Homo sapiens)
Construct: from tissue; host or cells: human leukocytes (from the name)
Sequence (P08246 30-267): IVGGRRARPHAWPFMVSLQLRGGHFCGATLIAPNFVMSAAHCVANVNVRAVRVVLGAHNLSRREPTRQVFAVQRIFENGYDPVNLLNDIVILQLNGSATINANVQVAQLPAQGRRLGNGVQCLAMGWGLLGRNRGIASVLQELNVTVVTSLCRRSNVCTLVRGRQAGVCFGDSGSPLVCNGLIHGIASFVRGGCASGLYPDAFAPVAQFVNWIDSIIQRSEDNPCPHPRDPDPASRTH
ASSAY REMARKS: Inactivation of human leukocyte elastase (HLE)
Type: biochemical
PARTICULARS: Table IV; pH 7.5, 25° C; [I] 0.001 to 0.18 mM; read-out: kobs/[I]
OUTCOME MEASURE: kinact/KI (M⁻¹ s⁻¹)
Entry rule: numbers only, all in M⁻¹ s⁻¹.

Query: Output kinact/KI of `N=C(N)SCCOc1oc(=O)c2ccccc2c1Cl`
Response: 220

Query: Output kinact/KI of `N=C(N)Nc1ccc2c(Cl)c(OCCc3ccccc3)oc(=O)c2c1`
Response: 73

Query: Output kinact/KI of CCOc1oc(=O)c2cc(NC(=N)N)ccc2c1Cl [7-guanidino-3-ethoxy-4-chloroisocoumarin, 7-guanidino-4-chloro-3-ethoxyisocoumarin]
Response: 81000

The reported measurements were obtained from patent US5324648A.
